MEASURED_ON: Human ROCK1 protein (amino acids 1–477) (Homo sapiens)
Construct: purchased Carna Biosciences 01-109
PROTOCOL_TEXT: ROCK1 HTRF KinEASE-STK S2 biochemical activity assay
CONDITION_SET: 2021-01-18 ROCK1 (n=3) 665/620 Activity [%]; curve fit parameter
ASSAY_METRIC: Sinf
Answer with the value and then the unit.

- CC(NC(=O)c1ccc(-c2cn[nH]c2)cc1)C1CC1c1ccccc1 (mixture of isomers): -93.6754%

May I ask what Sinf has been recorded for `COCc1cccc(CC(=O)Nc2ccc(-c3cn[nH]c3)cc2)c1` ? -99.1388%

Which Sinf value belongs to CC(CNC(=O)c1ccc(-c2cn[nH]c2)cc1)N1CCc2ccccc21 (stereo not drawn) ? -99.9466%

Endpoint output: Sinf of CC(Cc1ccc(F)cc1F)NC(=O)c1ccc(-c2cn[nH]c2)cc1 (racemic) . Value? -95.7048%

Can you share its Sinf? I mean this compound: `O=C(NCC1(Cc2ccccc2)CC1)c1ccc(-c2cn[nH]c2)cc1` -96.0861%

What value of Sinf has been reported for the following compound? `CSc1cccc(F)c1CNC(=O)c1ccc(-c2cn[nH]c2)cc1` -100.142%

====

MEASURED_ON: Human ROCK1 protein (amino acids 1–477) (Homo sapiens, UniProt Q13464)
Construct: purchased Carna Biosciences 01-109
Sequence (Q13464 1-477): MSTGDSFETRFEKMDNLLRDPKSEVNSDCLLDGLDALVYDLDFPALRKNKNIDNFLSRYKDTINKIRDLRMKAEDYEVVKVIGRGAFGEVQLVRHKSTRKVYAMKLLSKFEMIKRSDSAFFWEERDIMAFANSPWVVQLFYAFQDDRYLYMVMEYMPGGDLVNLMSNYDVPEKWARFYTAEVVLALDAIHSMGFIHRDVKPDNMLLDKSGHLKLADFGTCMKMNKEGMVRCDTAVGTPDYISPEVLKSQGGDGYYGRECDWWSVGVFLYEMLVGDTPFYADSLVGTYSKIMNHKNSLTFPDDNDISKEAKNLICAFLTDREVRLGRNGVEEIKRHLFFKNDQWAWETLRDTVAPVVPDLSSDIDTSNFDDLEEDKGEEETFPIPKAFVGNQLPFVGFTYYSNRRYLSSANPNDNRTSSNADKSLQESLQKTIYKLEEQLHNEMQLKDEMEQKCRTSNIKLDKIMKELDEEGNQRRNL
PROTOCOL_TEXT: ROCK1 HTRF KinEASE-STK S2 biochemical activity assay
CONDITION_SET: 2021-01-17 ROCK1 HTRF (n=1); curve fit parameter
Some molecules, each annotated with its measured nHill.
Reply briefly: the number, and no unit.

Check out these entries, answers already filled in.
• O=C(NCC1(Cc2ccccc2)CC1)c1ccc(-c2cn[nH]c2)cc1 [Compound 4] = 1.05
• CSc1cccc(F)c1CNC(=O)c1ccc(-c2cn[nH]c2)cc1 [Compound 5] = 1.067
• CC(Cc1ccc(F)cc1F)NC(=O)c1ccc(-c2cn[nH]c2)cc1 (racemic) [Compound 3] = 1.058
• CC(CNC(=O)c1ccc(-c2cn[nH]c2)cc1)N1CCc2ccccc21 (stereo not drawn) [Compound 2] = 1.042

// lookup nHill for COCc1cccc(CC(=O)Nc2ccc(-c3cn[nH]c3)cc2)c1 [Compound 1] 1.046

// returns reported nHill for input CC(NC(=O)c1ccc(-c2cn[nH]c2)cc1)C1CC1c1ccccc1 (mixture of isomers) [Compound 6] 1.0903

====

Here the recorded pIC50 is given for each entry.
MEASURED_ON: Human ROCK1 protein (amino acids 1–477) (Homo sapiens, UniProt Q13464)
Construct: purchased Carna Biosciences 01-109
PROTOCOL_TEXT: ROCK1 HTRF KinEASE-STK S2 biochemical activity assay
CONDITION_SET: Supplementary Figure 4 source data; unit inferred; read-out: hit IC50
Field pIC50 (float): negative decimal logarithm of the concentration in molar.

- CC(Cc1ccc(F)cc1F)NC(=O)c1ccc(-c2cn[nH]c2)cc1 (racemic) [Compound 3]: 6.80
- CSc1cccc(F)c1CNC(=O)c1ccc(-c2cn[nH]c2)cc1 [Compound 5]: 6.77
- O=C(NCC1(Cc2ccccc2)CC1)c1ccc(-c2cn[nH]c2)cc1 [Compound 4]: 6.78
- CC(NC(=O)c1ccc(-c2cn[nH]c2)cc1)C1CC1c1ccccc1 (mixture of isomers) [Compound 6]: 6.74
- CC(CNC(=O)c1ccc(-c2cn[nH]c2)cc1)N1CCc2ccccc21 (stereo not drawn) [Compound 2]: 6.99

# input for lookup
# value lookup — system Human ROCK1 protein (amino acids 1–477) (Homo sapiens, UniProt Q13464), readout pIC50, item COCc1cccc(CC(=O)Nc2ccc(-c3cn[nH]c3)cc2)c1 [Compound 1] 7.10

The reported numbers originate from paper PMC9616902.
